tested on: SK-MEL-2; test: NCI tumour cell line growth inhibition, 48 h
The source made the active and inactive calls. No stated cut-off is given here; in the data, active = GI50 up to about 1.1 µM and inactive = higher.
Labels: active, inactive

• Cc1cc(O)nc(NNC(C#N)c2ccccc2O)n1 (stereo not given) = inactive
• Cc1ccc2nc3cc(C)c(=O)cc-3sc2c1 = inactive
• CC(=O)Oc1ccc(C2SCc3nc4ccccc4n32)cc1 (stereo not given) = inactive
• COC(=O)/C=C/c1cc(OC)c2oc(-c3ccc(OC)c(OC)c3)c(C(=O)OC)c2c1 = inactive
• O=C1C(Cl)=C(Nc2ccc(OC(F)(F)F)cc2)C(=O)c2c(O)ccc(O)c21 = active
• CCOC(=O)c1ccc(NCc2ccc3oc(=O)c(-c4ccccc4)nc3c2)cc1 = inactive
• O=C(N/C(=C\c1cccc([N+](=O)[O-])c1)c1nc2cc([N+](=O)[O-])ccc2[nH]1)c1ccccc1 = inactive
• CC1=NN(c2nc(N)nc(C(C)Cl)n2)C(C)(C)C1 (stereo not given) = inactive
• Cc1ccc2[nH]c3c(c2c1)C1CCC(C(C)(C)C)CC1C1C(=O)N(c2ccc4c(c2)OCO4)C(=O)C31 (stereo not given) = inactive
• [O-]c1c[n+](-c2ccccc2)no1 = inactive
• CC[C@H](C)C(=O)O[C@H]1C[C@@H](C)C=C2C=C[C@H](C)[C@H](CC[C@@H]3C[C@@H](O)CC(=O)O3)[C@H]21 [LOVASTATIN] = inactive
• N#Cc1nc(Sc2cnsn2)c(Sc2cnsn2)nc1C#N = inactive
• CN(C)CCSCCO = inactive
• S=P(N1CC1)(N1CC1)N1CC1 [THIOTEPA] = inactive
• O=C1CCCC1C(=O)Nc1ccc2ccccc2c1 (stereo not given) = inactive
• CCOc1cc(C2CC(c3ccc(NS(=O)(=O)c4cc([N+](=O)[O-])ccc4C)cc3)=NN2c2ccc([N+](=O)[O-])cc2[N+](=O)[O-])ccc1O (stereo not given) = inactive
• O=[N+]([O-])c1cc(Cl)ccc1Sc1ccccc1 = inactive
• CCC(C)SC1SCC2C(=O)N(C)C3(CC3C)C(=O)OCC(NC(=O)c3nc4ccccc4cc3O)C(=O)NC(C)C(=O)N(C)C1C(=O)N(C)C1(CC1C)C(=O)OCC(NC(=O)c1nc3ccccc3cc1O)C(=O)NC(C)C(=O)N2C (stereo not given) = active
• O=c1[nH]c2cc3[nH]c4ncccc4c(=O)c3cc2[nH]1 = inactive
• O=C1CCCC2(c3ccccc3)Nc3ccccc3N12 (stereo not given) = inactive

* * *

system: NCI-H226; assay: NCI tumour cell line growth inhibition, 48 h
Active and inactive are the calls of the source. Cut-off read from the data, not from the text of the source: active = GI50 up to about 1.1 µM and inactive = higher.
Labels: Yes = active, No = inactive

• Cc1ccc2ccccc2c1NC1=NCCO1 = No
• C1CNOCCCONCCCNOCCCONC1 = No
• COc1ccc(-c2cc(=O)c3c(O)c(OC)c(O)c(OC)c3o2)cc1OC = No
• COc1ccc(S(=O)(=O)Nc2ccc(-c3csc(N4C(=O)/C(=C/c5ccccc5[N+](=O)[O-])N=C4c4ccccc4)n3)cc2)cc1Cl = No
• CC1CC(C)C2OC2(C)C[C@H](C)C(=O)NC(C)C(=O)N(C)[C@H](Cc2c(Br)[nH]c3ccccc23)C(=O)N[C@@H](c2ccc(O)cc2)CC(=O)O1 (stereo not given in full) = Yes
• CC(C)CCCC(C)[C@H]1CC[C@H]2n3c(nnc3-c3ccccc3)CCC[C@]12C (stereo not given in full) = No
• O=S(=O)(/N=S(/Nc1ccccc1)C(F)(F)Cl)c1ccccc1 (stereo not given) = No
• CCN(CC)c1ccc2c(c1)N=C1N=CC=CN1C2(c1ccc(N(C)C)cc1)c1ccc(N(C)C)cc1 = No
• O=C1CCCC2(c3ccccc3)Nc3ccccc3N12 (stereo not given) = No
• Cc1ccc(S(=O)(=O)C2=Cc3ccc(C(F)(F)F)cc3C2(O)c2cccc(C(F)(F)F)c2)cc1 (stereo not given) = No

* * *

tested on: HOP-62; assay: NCI tumour cell line growth inhibition, 48 h
Active and inactive are the calls of the source. No stated cut-off is given here; in the data, active = GI50 up to about 1.1 µM and inactive = higher.
Labels: y = active, n = inactive

- O=C1CCCC2(c3ccccc3)Nc3ccccc3N12 (stereo unspecified): n
- COC(=O)C1SC(SC)=NC12c1ccccc1Nc1ccccc12 (stereo unspecified): n
- C=C(CC)C(=O)c1ccc(OCC(=O)O)c(Cl)c1Cl: n
- COC12OC3CC4(C)C(=CC3OC(OC(C)C1O)C2O)CCC1C4CCC2(C)C(c3ccc(=O)oc3)CCC12O (stereo unspecified): y
- CCN(CC)CCNc1ccc([N+](=O)[O-])c2nc3ccc(OC)cc3c(N)c12: n
- N#CSC#CCCC#CSC#N: n
- COc1nc(N)c(C#N)c(C#N)c1C#N: n
- CCc1nc2ccccc2c(=O)n1/N=C(\N=N\c1ccc(Cl)cc1)c1ccccc1: n
- COC(=O)CCC(=O)CC1CC(=O)C2CCCN12 (stereo unspecified): n
- O=C1CCCC1C(=O)Nc1ccc2ccccc2c1 (stereo unspecified): n
- CS(=O)(=O)OCCn1c(=O)n(CCOS(C)(=O)=O)c(=O)n(CCOS(C)(=O)=O)c1=O: n
- Cc1ccc(Oc2ccc([N+](=O)[O-])cc2[N+](=O)[O-])c(C)c1: n
- N#Cc1nc(C2SCCCS2)oc1N: n
- CC(C)c1ccc(O)c(=O)c(O)c1.CC(C)c1ccc(O)c(=O)cc1.CC(C)c1cccc(=O)c(O)c1.CC(C)c1ccccc(=O)c1O: n
- Cc1cc(C)c(S(=O)(=O)N[C@@H](/C=C(\Br)CO)C(C)C)c(C)c1: n
- CCc1nc(N)nc(N)c1-c1ccc(Cl)cc1: n
- C1=CC2CCC1CN2CCC1CNc2ccccc21 (stereo unspecified): n
- O=C1NC(c2ccccc2)(c2ccccc2)C(=O)N1CCCCCCN1C(=O)NC(c2ccccc2)(c2ccccc2)C1=O: n
- Nc1ncn(C2OC(COP(=O)(O)O)C(O)C2O)c(=O)n1 (stereo unspecified): n
- N#CC1=C(N2CCOCC2)CCC1: n
- CC(=O)O[C@H]1C(=O)[C@@]2(C)C(C(OC(=O)c3ccccc3)[C@]3(O)CC(OC(=O)C(O)C(NC(=O)c4ccc(C(F)(F)F)cc4)c4ccccc4)C(C)=C1C3(C)C)[C@]1(OC(C)=O)CO[C@@H]1C[C@@H]2O (stereo partly specified): y

* * *

Attribute: GI50
tested on: OVCAR-5; test: NCI tumour cell line growth inhibition, 48 h
Calls of active or inactive are those of the source. No stated cut-off is given here; in the data, active = GI50 up to about 1.1 µM and inactive = higher.
Reported property: GI50

• COC(=O)/C=C(\C)CC/C=C(\C)CCC(O)C(C)(C)O (stereo unspecified) = 60.4 µM (inactive)
• Cc1cc(Cl)ccc1Nc1nc2c(s1)C(=O)c1ccccc1C2=O = 4.55 µM (inactive)
• O=C(CC1SC(Nc2ccccc2Cl)=NC1=O)Nc1ccc(Cl)cc1Cl (stereo unspecified) = > 100 µM (inactive)
• Cc1c2ccncc2c(C)c2c1[nH]c1ccc(OC(C)C)cc12 = 1.48 µM (inactive)
• O=c1[nH]c2cc3[nH]c4ncccc4c(=O)c3cc2[nH]1 = > 10 µM (inactive)
• COc1ccc(-c2cc(=O)c3c(O)cc(O)cc3o2)c(OC)c1OC = 92.3 µM (inactive)
• COC1O[C@@H]2CCN3C(=O)[C@@H](OC(=O)c4ccc([N+](=O)[O-])cc4)[C@H]1C23 (stereo partly specified) = > 100 µM (inactive)
• CC(=O)Nc1ccccc1-c1nc2ccccc2nc1C = > 100 µM (inactive)
• COc1ccc(-c2c3c(n(C4OC(COC(C)=O)C(OC(C)=O)C(OC(C)=O)C4OC(C)=O)c(=S)c2C#N)CCC3)cc1 (stereo unspecified) = > 100 µM (inactive)
• COC(=O)C(CC12CC3CC(CC(C3)C1)C2)NC(=O)C(N)CC(=O)O (stereo unspecified) = > 100 µM (inactive)
• CCOc1ccc(/C=C\c2cc(OC)c(OC)c(OC)c2)cc1 = 22.1 µM (inactive)
• CN(C)c1cccc2c(S(=O)(=O)NCCCNCCN)cccc12 = 38.1 µM (inactive)
• C=CCN1C(=O)/C(=C/c2ccccc2)N=C1SC1OC(COC(C)=O)C(OC(C)=O)C(OC(C)=O)C1OC(C)=O (stereo unspecified) = 26 µM (inactive)
• O=C(Nc1cccc(C(F)(F)F)c1)O/N=C(/Cl)CCl = 21.8 µM (inactive)
• CCCN1C(=O)CNC(=O)c2[nH]cnc21 = > 100 µM (inactive)
• CN(C)CC1CCCCCCCCCCCCC(CN(C)C)C1=O (stereo unspecified) = 16.7 µM (inactive)
• COC1OC(C(=O)O)C2OC(C)(C)OC12 (stereo unspecified) = > 100 µM (inactive)
• O=C1CCN(CCC(F)(F)C(F)(F)C(F)(F)C(F)(F)C(F)(F)C(F)(F)F)C(=S)N1CCC(F)(F)C(F)(F)C(F)(F)C(F)(F)C(F)(F)C(F)(F)F = > 100 µM (inactive)
• COc1ccc(-c2c(-c3ccccc3)c(C)nc3nc(SC)nc(SC)c23)cc1OC = 12.4 µM (inactive)
• CC1(C)OCC(C(O)C2OC(C)(C)OC2C=O)O1 (stereo unspecified) = > 100 µM (inactive)
• O=C1c2ccccc2C(=O)c2c(OCCOCCO)cccc21 = > 100 µM (inactive)
